Study target: Human DPP4 (Homo sapiens)
Construct: purchased Sigma-Aldrich MAK088
Sequence (P27487 whole entry): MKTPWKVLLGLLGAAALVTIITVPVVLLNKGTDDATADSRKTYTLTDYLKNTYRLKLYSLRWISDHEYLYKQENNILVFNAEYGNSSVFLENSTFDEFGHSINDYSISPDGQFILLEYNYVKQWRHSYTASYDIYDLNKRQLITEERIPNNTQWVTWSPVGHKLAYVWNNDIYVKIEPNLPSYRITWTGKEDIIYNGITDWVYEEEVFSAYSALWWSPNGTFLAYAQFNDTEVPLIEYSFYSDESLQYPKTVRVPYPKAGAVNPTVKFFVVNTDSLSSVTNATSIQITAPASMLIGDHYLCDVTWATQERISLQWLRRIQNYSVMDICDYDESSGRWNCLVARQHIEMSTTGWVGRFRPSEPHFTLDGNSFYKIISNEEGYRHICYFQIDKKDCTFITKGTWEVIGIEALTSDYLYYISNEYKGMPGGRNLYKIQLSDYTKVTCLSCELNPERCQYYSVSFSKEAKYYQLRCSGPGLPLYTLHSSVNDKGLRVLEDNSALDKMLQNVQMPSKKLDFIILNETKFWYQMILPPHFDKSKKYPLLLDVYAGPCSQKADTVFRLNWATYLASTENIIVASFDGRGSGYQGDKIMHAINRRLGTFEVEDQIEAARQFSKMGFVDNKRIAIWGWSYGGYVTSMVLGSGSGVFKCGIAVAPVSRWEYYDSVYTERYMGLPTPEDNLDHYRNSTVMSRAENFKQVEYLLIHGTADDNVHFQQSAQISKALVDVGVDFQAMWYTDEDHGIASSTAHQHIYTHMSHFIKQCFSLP
Test summary: DPP4 activity assay (DPP4 Activity Assay Kit, fluorescent substrate)
Format: biochemical
Test settings: Human DPP4; read-out: DPP4 inhibition IC50 [nM])
Metric name: IC50 (nM)
The figure you give is taken to be in nM; do not add the unit.

The measured IC50 that CCN(Cc1cn(CCOCCOCCOC(=O)c2nc(C(F)(F)F)n3c2CN(C(=O)C[C@H](N)Cc2cc(F)c(F)cc2F)CC3)nn1)C[C@H](O)[C@@H](O)[C@H](O)[C@H](O)CO showed for Human DPP4 (Homo sapiens) is 0.55

Tested system Human DPP4 (Homo sapiens); IC50 recorded for N[C@@H](CC(=O)N1CCn2c(C(F)(F)F)nc(C(=O)OCCOCCOCCn3cc(CN(C[C@H](O)[C@@H](O)[C@H](O)[C@H](O)CO)C[C@H](O)[C@@H](O)[C@H](O)[C@H](O)CO)nn3)c2C1)Cc1cc(F)c(F)cc1F was 0.55
